# Tested on: BJeLR fibroblast viability, Alamar Blue fluorescence, 48 h
# Protocol details: BJeLR fibroblast growth inhibition, viability readout – cell-based, alamar blue fluorescence, 48 h, cherrypicked samples, dose response (AID 2610);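 note: BJ fibroblasts with hTERT plus SV40 large and small T and HRAS V12; EC50 for loss of viable cells so potency reflects cytotoxic compounds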
Records with an inconclusive call do not appear. The source made the active and inactive calls.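 Rule for the calls: active = EC50 no more than tenfold above the top concentration tested, with valid fit and all samples agreeing; inconclusive = flat fit at 30 to 70% inhibition, poor fit, or split samples; inactive = EC50 beyond tenfold the top concentration tested.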
Experimental readout: EC50

Below, each entry is followed by its recorded EC50 result.
| Compound | EC50 |
| --- | --- |
| Cc1ccc2[nH]c3c(c2c1)CCCC3NC(=O)CCl (configuration not stated) | 2270 nM |
| CC(C)[C@]12O[C@H]1[C@@H]1O[C@]13[C@]1(O[C@H]1C[C@H]1C4=C(CC[C@@]13C)C(=O)OC4)[C@@H]2O | < 104 nM |

Look at each compound and report its EC50.
1. Cc1ccc(C(C)C)c(OCc2ccc(C(=O)N/N=C/c3cccc(O)c3O)cc2)c1
2. O=C(NCCCn1ccnc1)c1ccc(N2CCCCCC2)c([N+](=O)[O-])c1
3. COCCCNC(=O)c1ccc2c3c(onc13)-c1ccccc1C2=O
4. Cn1cccc1/C=C1\SC(=Nc2ccc(O)cc2)NC1=O

Result ::
1. 496 nM
2. 6680 nM
3. 3150 nM
4. < 104 nM

Look at each compound and report its EC50.
1. COc1ccc(-c2cc3nc(C)n(N)c(=O)c3s2)cc1
2. COc1cc(C2c3cc4c(cc3C(OC3OC5COC(c6cccs6)OC5C(O)C3O)C3COC(=O)C23)OCO4)cc(OC)c1O (configuration not stated)

Result ::
1. > 13300 nM (inactive)
2. 129 nM

Look at each compound and report its EC50.
1. COc1ccc(COC(=O)c2cc([N+](=O)[O-])ccc2N2CCOCC2)cc1F
2. O=C1C(=O)c2ccc(-c3ccccc3)cc2-c2ccccc21
3. CCc1ccc(NC(=O)[C@H](Cc2c[nH]c3ccccc23)NC(=O)[C@@H]2Cc3ccccc3CN2)cc1
4. C/C(=N\Nc1ncnc2sc(C)c(C)c12)c1ccccn1

Result ::
1. < 104 nM
2. 926 nM
3. > 13300 nM (inactive)
4. < 104 nM
